Sourced from ChEMBL document CHEMBL3112409

test_description: Terminal elimination rate constant in dog at 26.5 mg/kg, po
Assay type: ADME, organism-based, Canis lupus familiaris
Set-up: dose 26.5 mg/kg, route oral
run_parameters: in vivo
recorded_endpoint: k el (s⁻¹)
Number in s⁻¹, nothing else.

Reported k el of CCc1nn2c(=O)cc(N3CCNCC3)nc2s1 : 8e-05

---

test_description: Cmax in dog at 53 mg/kg, po
Format: ADME, organism-based, Canis lupus familiaris
Set-up: dose 53 mg/kg, route oral
run_parameters: in vivo
recorded_endpoint: Cmax (ng/mL)
Number in ng/mL, nothing else.

Reported Cmax of CCc1nn2c(=O)cc(N3CCNCC3)nc2s1 : 11900

---

test_description: Tmax in dog at 53 mg/kg, po
Type: ADME, organism-based, Canis lupus familiaris
Design: dose 53 mg/kg, route oral
run_parameters: in vivo
recorded_endpoint: Tmax (min)
Number in min, nothing else.

Reported Tmax of CCc1nn2c(=O)cc(N3CCNCC3)nc2s1 : 30

---

I'd appreciate it if you could supply inhibition values for the items below.
measured_on: Integrin alpha-IIb/beta-3 (Homo sapiens) (UniProt P05106+P08514)
test_description: Inhibition of […] receptor (unknown origin) assessed as inhibition of platelet adhesion at 100 uM
Number in %, nothing else.

Reported inhibition of CCc1nn2c(=O)cc(N3CCN(C)CC3)nc2s1 : 35

Reported inhibition of CCc1nn2c(=O)cc(N3CCOCC3)nc2s1 : 20

Reported inhibition of CCc1nn2c(=O)cc(N3CCCCC3)nc2s1 : 23

Reported inhibition of C[C@H](N)C(=O)Nc1cccc(-c2nn3c(=O)cc(N4CCNCC4)nc3s2)c1 : 66

Reported inhibition of CCc1nn2c(=O)c(F)c(N3CCNCC3)nc2s1 : 41

Reported inhibition of O=c1cc(N2CCNCC2)nc2sc(-c3ccccc3)nn12 : 56

---

test_description: Metabolic stability in mouse plasma after 15 mins
Format: ADME, cell-free
run_parameters: read-out: Stability
I'd appreciate it if you could supply remaining at 0.25 h values for the items below.
Number in %, nothing else.

Reported remaining at 0.25 h of NCC(=O)Nc1cccc(-c2nn3c(=O)cc(N4CCNCC4)nc3s2)c1 : 97.5

Reported remaining at 0.25 h of NCC(=O)Nc1cncc(-c2nn3c(=O)cc(N4CCNCC4)nc3s2)c1 : 100

---

test_description: Volume of distribution in dog at 26.5 mg/kg, iv
Format: ADME, organism-based, Canis lupus familiaris
Set-up: dose 26.5 mg/kg, route intravenous
run_parameters: in vivo
recorded_endpoint: Vd (L/kg)
Number in L/kg, nothing else.

Reported Vd of CCc1nn2c(=O)cc(N3CCNCC3)nc2s1 : 2.37

---

test_description: Metabolic stability in mouse plasma after 120 mins
Assay type: ADME, cell-free
run_parameters: read-out: Stability
recorded_endpoint: remaining at 2 h (%)
Number in %, nothing else.

Reported remaining at 2 h of NCC(=O)Nc1cncc(-c2nn3c(=O)cc(N4CCNCC4)nc3s2)c1 : 91.7

Reported remaining at 2 h of NCC(=O)Nc1cccc(-c2nn3c(=O)cc(N4CCNCC4)nc3s2)c1 : 84.5

---

test_description: Metabolic stability in mouse hepatocytes assessed as compound remaining after 120 mins
Format: ADME, cell-based, Hepatocyte
run_parameters: read-out: Stability
recorded_endpoint: remaining at 2 h

Reported remaining at 2 h of NCC(=O)Nc1cncc(-c2nn3c(=O)cc(N4CCNCC4)nc3s2)c1 : > 95%

---

measured_on: Integrin alpha-IIb/beta-3 (Homo sapiens) (UniProt P05106+P08514)
test_description: Inhibition of […] receptor (unknown origin) assessed as inhibition of platelet adhesion at 50 uM
recorded_endpoint: inhibition (%)
Number in %, nothing else.

Reported inhibition of O=C(O)c1ccc(-c2nn3c(=O)cc(N4CCNCC4)nc3s2)cc1 : 49

Reported inhibition of CC(C)(C)c1nn2c(=O)cc(N3CCNCC3)nc2s1 : 35

Reported inhibition of O=C(O)c1cccc(-c2nn3c(=O)cc(N4CCNCC4)nc3s2)c1 : 37

Reported inhibition of O=C(O)CNc1cccc(-c2nn3c(=O)cc(N4CCNCC4)nc3s2)c1 : 78

---

test_description: AUC (infinity) in dog at 26.5 mg/kg, iv
Format: ADME, organism-based, Canis lupus familiaris
Set-up: time infinity, dose 26.5 mg/kg, route intravenous
run_parameters: plasma
recorded_endpoint: AUC(0-inf) (ng·h/mL)
Number in ng·h/mL, nothing else.

Reported AUC(0-inf) of CCc1nn2c(=O)cc(N3CCNCC3)nc2s1 : 28000
